# test_method_notes: Lipophilicity, log P of the compound
# Format: physicochemical
# measurement_setup: octanol/water
Assign classes using reported logP values and the ranges lowest = under 5, middle = from 5 up to 6, highest = 6 and over, please.

CC(C)Sc1nnc(-c2c(CNCCN3CCOCC3)c3cc(F)ccc3n2C)n1-c1ccccc1 :: lowest
CC(C)Sc1nnc(-c2c(CNCCCN3CCOCC3)c3cc(F)ccc3n2C)n1-c1ccccc1 :: lowest
CC(C)Sc1nnc(-c2c(CN3CCOCC3)c3ccccc3n2C)n1-c1ccccc1 :: lowest
CC(C)Sc1nnc(-c2c(CNCC3CC3)c3cc(F)ccc3n2C)n1-c1ccccc1 :: middle
CC(C)Sc1nnc(-c2c(CNCCN3CCCC3)c3ccccc3n2C)n1-c1ccccc1 :: lowest

Task item: Which category does the recorded logP put `CC(C)Sc1nnc(-c2c(CNCC3CC3)c3ccccc3n2C)n1-c1ccccc1` in?
Reply: middle

Task item: Would you mind sorting `COc1cccc(CNCc2c(-c3nnc(SC(C)C)n3-c3ccccc3)n(C)c3ccccc23)c1` into the appropriate category?
Reply: highest

Task item: Field: class (logP) — entry: `COc1cccc(CNCc2c(-c3nnc(SC(C)C)n3-c3ccccc3)n(C)c3ccc(F)cc23)c1`
Reply: highest

Task item: Bin this entry: `CC(C)Sc1nnc(-c2c(CNCCN3CCOCC3)c3ccccc3n2C)n1-c1ccccc1`
Reply: lowest

* * *

Measured logP accompanies every entry in the list below.
# test_method_notes: Lipophilicity, log P of the compound
# Format: physicochemical
# measurement_setup: octanol/water

# example entries with known answers
CC(C)Sc1nnc(-c2c(CN3CCC(N4CCCC4)CC3)c3ccccc3n2C)n1-c1ccccc1 :: 5.16
COCCNCc1c(-c2nnc(SC(C)C)n2-c2ccccc2)n(C)c2ccc(F)cc12 :: 4.52
COCCNCc1c(-c2nnc(SC(C)C)n2-c2ccccc2)n(C)c2ccccc12 :: 4.36
CC1CCCN(Cc2c(-c3nnc(SC(C)C)n3-c3ccccc3)n(C)c3ccccc23)C1 (centres undefined) :: 6.03
CC(C)Sc1nnc(-c2c(CNC3CC3)c3ccccc3n2C)n1-c1ccccc1 :: 4.81

Task item: # logP lookup, item `CC(C)Sc1nnc(-c2c(CNc3cnccn3)c3ccccc3n2C)n1-c1ccccc1`
Reply: 4.22

Task item: logP lookup needed for `CC(C)Sc1nnc(-c2c(CN3CCOCC3)c3cc(F)ccc3n2C)n1-c1ccccc1` , thanks.
Reply: 4.65

Task item: Field request: logP | item: `CC1CCN(Cc2c(-c3nnc(SC(C)C)n3-c3ccccc3)n(C)c3ccccc23)CC1`
Reply: 5.96

Task item: Give the measured logP of `CC(C)Sc1nnc(-c2c(CNc3nc4ccccc4[nH]3)c3ccccc3n2C)n1-c1ccccc1` .
Reply: 5.94

* * *

# test_method_notes: Lipophilicity, log P of the compound
# Type: physicochemical
# measurement_setup: octanol/water
readout: logP
Write the value as a bare number.

Task item: What measured logP goes with CC(C)Sc1nnc(-c2c(CN3CCCCC3C)c3ccccc3n2C)n1-c1ccccc1 (stereo unspecified) ?
Reply: 5.95

Task item: Value lookup for logP; key = CC1CN(Cc2c(-c3nnc(SC(C)C)n3-c3ccccc3)n(C)c3ccccc23)CC(C)O1 (stereo unspecified)
Reply: 5.13

Task item: Looking for the measured logP of `CC(C)Sc1nnc(-c2c(CNC3CC3)c3cc(F)ccc3n2C)n1-c1ccccc1` , can you help?
Reply: 4.97

Task item: Any idea what logP was measured for `CC1CCN(Cc2c(-c3nnc(SC(C)C)n3-c3ccccc3)n(C)c3ccc(F)cc23)CC1` ?
Reply: 6.12

Task item: Which logP is listed for `CC(C)Sc1nnc(-c2c(CNCCN3CCCC3)c3cc(F)ccc3n2C)n1-c1ccccc1` ?
Reply: 4.99

Task item: // query logP value for entry `COc1cc(NCc2c(-c3nnc(SC(C)C)n3-c3ccccc3)n(C)c3ccc(F)cc23)cc(OC)c1OC`
Reply: 5.96
